Consider the following compounds; for each one, report its growth.
test system: A498 renal; experiment: NCI-60 one-dose screen, 48 h (100 = growth as untreated, 0 = no growth, -100 = all killed); settings: 10 µM unless noted
The panel holds about 83,000 compounds, 20% with a hit somewhere; the sample as a whole holds those more often.
Note: unit % is implicit; provide only the numeric part.

Recorded growth of CCOC(=O)C1=C(C)N(C)C(=O)N(C)C1c1ccccc1 (stereo not drawn) , please.
86.8

Recorded growth of COC(=O)c1ccc(-n2cc(CCCOS(=O)(=O)c3ccc(F)cc3)nn2)cc1 , please.
84.4

Recorded growth of CCN1C(=O)N(CC)C2C1NN=c1s/c(=C3\C(=O)N(C)c4ccccc43)c(=O)n12 (stereo not drawn) , please.
-26.9

Recorded growth of COc1cc2c(cc1OC)CC[N+](CCC[N+](C)(C)C)=C2 , please.
104

Recorded growth of CNC(=O)c1cc(Oc2ccc3nc(NC(=O)c4cc(C(F)(F)F)cc(C(F)(F)F)c4)sc3c2)ccn1 , please.
-11.4

Recorded growth of COc1ccc(/C=C\c2cc(OC)c(OC)c(OC)c2)cc1OCC(=O)Nc1nc2ccccc2s1 , please.
25.1

Recorded growth of N#Cc1c(-c2ccc(F)cc2)cc(-c2cccc(Cl)c2)[nH]c1=O , please.
80.4

Recorded growth of O=C(Nc1cccc2c1C(=O)c1cccc(NC(=O)c3ccc(C(=O)Nc4cccc5c4C(=O)c4cccc(NC(=O)c6ccccc6)c4C5=O)cc3)c1C2=O)c1ccccc1 , please.
117

Recorded growth of COc1ccc(C(=O)/C=C/Nc2cc(-c3ccccc3)nn2-c2ccccc2)cc1 , please.
78

Recorded growth of Cc1ccc(-c2nnc(SCc3nc(N)nc(Nc4ccccc4F)n3)n2-c2ccccc2)cc1 , please.
55.3

Recorded growth of Cc1cc(C)n(C(=O)CSc2nc3sc4c(c3c(=O)n2-c2ccccc2)CCCCC4)n1 , please.
99.5

Recorded growth of CCN=c1sc2c(n1NC(=O)c1cc3ccc1CCc1ccc(cc1)CC3)C(=O)c1ccccc1C2=O , please.
51.6

Recorded growth of O=c1n(C2OC(CO)C(O)C2O)ccc2nccn12 (stereo not drawn) , please.
95.8

Recorded growth of Cn1cc(-c2ccc3occ(-c4cccc(-c5ccncc5)c4)c3n2)cn1 , please.
-15.7

Recorded growth of CC(C)CCc1nc2ccc(NCc3ccc(OCCN4CCC(C)CC4)cc3)cc2[nH]1 , please.
79.3

Recorded growth of COC(CCP(=O)(c1ccccc1)c1ccccc1)(C(=O)c1ccccc1)c1ccccc1 (stereo not drawn) , please.
83.4

Recorded growth of O=C(/C=C/c1ccco1)Nc1ncc(Cc2ccc(F)cc2)s1 , please.
19.3

Recorded growth of CCCN1C2CCC1/C(=C\c1ccc(OC)cc1)C(=O)/C2=C/c1ccc(OC)cc1 , please.
80

Recorded growth of Cn1cc(-c2csc(-c3cn(CCO)c4ccc(F)cc34)n2)c2cccnc21 , please.
45.3

Recorded growth of CC(=O)c1c(/C=C/c2ccc(C)cc2)c2ccccc2[nH]c1=O , please.
81.2

Recorded growth of COc1ccc(-c2cn(Cc3ccc4c(Br)cc(Br)c(O)c4n3)nn2)cc1 , please.
99.6

Recorded growth of Cc1ccc(Nc2cc(N)nc(N)n2)cc1 , please.
105

Recorded growth of c1ccc(-c2nc(N3CCNCC3)c3oc(-c4ccccc4)nc3n2)cc1 , please.
88.2

Recorded growth of CO[C@H]1CC(c2ccc[nH]2)=N[C@]12O[C@@H](C)C[C@@H]1CCCCCCCc3ccc([nH]3)[C@H]12 , please.
57.4

Recorded growth of N#Cc1nn(-c2ccccn2)c(N)c1C#N , please.
106

Recorded growth of COc1nc2ccccc2cc1/C=C1/C=C(c2ccccc2)NC1=O , please.
35.9

Recorded growth of COc1ccc(S(=O)(=O)Oc2ccc(-c3sc4cc(OS(=O)(=O)c5ccc(OC)cc5)ccc4c3C(=O)c3ccc(OCCN4CCCCC4)cc3)cc2)cc1 , please.
105

Recorded growth of O=C(Nc1ccc(Oc2cccc(F)c2)c(Cl)c1)c1cnccn1 , please.
69.4

Recorded growth of CCN1CCN(c2nc(NNC(=O)c3ccc(OC)cc3)nc(N3CCN(C(c4ccccc4)c4ccccc4)CC3)n2)CC1 , please.
60.1

Recorded growth of CC1(C)C2=C(C(=O)N1Cc1ccccc1)C(c1ccco1)N(C(=O)C1CCC1)CCN2 (stereo not drawn) , please.
113

Recorded growth of FC(F)(F)c1cccc(-c2nnn(Cc3cc(-c4cccc(Cl)c4)no3)n2)c1 , please.
103

Recorded growth of Cc1cc(C(=O)Nc2cc(Nc3ncccc3-c3ncnc4nc[nH]c34)ccc2F)cc(C(C)(C)C#N)c1 , please.
-22.8

Recorded growth of C#Cc1cccc(Nc2nc(Cl)nc3cc(NC(=O)CCl)ccc23)c1 , please.
59.6

Recorded growth of [2H]C([2H])([2H])Oc1ccc(/C=C/C(=O)/C=C(/C=C/c2ccc(OC([2H])([2H])[2H])c(OC([2H])([2H])[2H])c2OC([2H])([2H])[2H])OB(F)F)c(OC([2H])([2H])[2H])c1OC([2H])([2H])[2H] , please.
107

Recorded growth of CN(C)C(=O)OCc1ccc2c(Cl)cc(Cl)c(O)c2n1 , please.
68

Recorded growth of COc1cc2c(c(OC)c1OC)CCC(c1cccc(C(=O)Nc3ccc([N+](=O)[O-])cc3)c1)O2 (stereo not drawn) , please.
25.5

Recorded growth of CN(C)c1ccc(/C=N/NC(=O)CSc2nc3sc4c(c3c(=O)n2-c2ccccc2)CCCCC4)cc1 , please.
34.8

Recorded growth of O=C1/C(=C/c2cccc([N+](=O)[O-])c2)COc2ccc(O)c(O)c21 , please.
99.7

The measured values listed here are drawn from PubChem BioAssay (NCI).
